meta.source: patent US20210228562A1

Molecular target: IRAK4 (Homo sapiens, UniProt Q9NWZ3)
Construct: endogenous in cells; host or cells: OCI-LY10
Sequence (Q9NWZ3 1-460): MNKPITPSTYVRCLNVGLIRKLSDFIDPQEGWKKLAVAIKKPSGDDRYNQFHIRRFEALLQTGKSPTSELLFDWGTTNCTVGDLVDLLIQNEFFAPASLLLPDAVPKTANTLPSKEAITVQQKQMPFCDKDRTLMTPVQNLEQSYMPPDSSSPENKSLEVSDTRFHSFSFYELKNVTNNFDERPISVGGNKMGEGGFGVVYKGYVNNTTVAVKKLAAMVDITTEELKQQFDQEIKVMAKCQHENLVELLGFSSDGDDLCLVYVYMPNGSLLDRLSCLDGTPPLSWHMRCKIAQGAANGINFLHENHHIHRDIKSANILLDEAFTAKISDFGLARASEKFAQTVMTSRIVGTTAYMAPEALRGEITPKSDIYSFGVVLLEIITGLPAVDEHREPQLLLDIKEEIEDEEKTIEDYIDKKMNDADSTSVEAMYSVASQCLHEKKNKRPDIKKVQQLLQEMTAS
Assay: IRAK4 MSD Degradation in OCI-LY10
Format: cell-based
Conditions: OCI-LY10 cells, 24 hrs incubation; read-out: IRAK4 degradation in OCI-LY10 at 24 hrs: DC50
testReadout: DC50

Example results:
>  <compound>
CC(C)(O)c1cc2nc(N3CCC(CN4CCC5(CC4)CC(CNc4cccc6c4C(=O)N(C4CCC(=O)NC4=O)C6=O)C5)CC3)sc2cc1NC(=O)c1cccc(C(F)(F)F)n1 (stereo not drawn) [I-35]

>  <experimentalTarget>
IRAK4 (Homo sapiens, UniProt Q9NWZ3)

>  <DC50>
50 to 100 nM

$$$$
>  <compound>
CN(C[C@H]1CC[C@H](c2nc3cc(C(C)(C)O)c(NC(=O)c4cccc(C(F)(F)F)n4)cc3s2)CC1)[C@H]1CC[C@H](CCNc2cccc3c2C(=O)N(C2CCC(=O)NC2=O)C3=O)CC1 (stereo partly drawn) [I-27]

>  <experimentalTarget>
IRAK4 (Homo sapiens, UniProt Q9NWZ3)

>  <DC50>
< 50 nM

$$$$

Please find the next compound below.
Annotate the compound C[C@H](CNc1cccc2c1C(=O)N(C1CCC(=O)NC1=O)C2=O)C1CC2(C1)CN(C[C@H]1CC[C@H](c3nc4cc(C(C)(C)O)c(NC(=O)c5cccc(C(F)(F)F)n5)cc4s3)CC1)C2 (stereo partly drawn) [I-31] with its measured DC50.
< 50 nM
